# target system: GLUT1 (Homo sapiens, UniProt P11166)
# test name: Indirect measurement of GLUT1 activity by quantification of intracellular ATP levels (glucose induced ATP increase)
# Type: cell-based
# Design: endogenous in cells; host or cells: DLD1 or CHO-K1
# study conditions: read-out: IC50 regarding glucose induced ATP increase (GLUT1 inhibition)
metric: pIC50
As a rule, pIC50 stands for the negative log10 of the concentration, concentration in M.

Answered examples (3):
item smiles: CC(=O)c1cccc(Cn2nc(C)c(NC(=O)c3cc(C(N)=O)nc4ccccc34)c2C)c1
pIC50: 6.97
--
item smiles: COc1ccccc1Cn1nc(C(F)(F)F)c(NC(=O)c2cc(C(N)=O)nc3cc(F)ccc23)c1C
pIC50: 6.76
--
item smiles: Cc1nn(Cc2ccncn2)c(C)c1NC(=O)c1cc(C(N)=O)nc2ccccc12
pIC50: 6.79

Hey, GLUT1 (Homo sapiens, UniProt P11166) data for CCc1nn(Cc2ccc(C#N)cc2)c(C)c1NC(=O)c1cc(C(N)=O)nc2cc(F)ccc12 : pIC50 came out at 8.43

----------
# target system: GLUT1 (Homo sapiens)
# Sequence (P11166 1-492): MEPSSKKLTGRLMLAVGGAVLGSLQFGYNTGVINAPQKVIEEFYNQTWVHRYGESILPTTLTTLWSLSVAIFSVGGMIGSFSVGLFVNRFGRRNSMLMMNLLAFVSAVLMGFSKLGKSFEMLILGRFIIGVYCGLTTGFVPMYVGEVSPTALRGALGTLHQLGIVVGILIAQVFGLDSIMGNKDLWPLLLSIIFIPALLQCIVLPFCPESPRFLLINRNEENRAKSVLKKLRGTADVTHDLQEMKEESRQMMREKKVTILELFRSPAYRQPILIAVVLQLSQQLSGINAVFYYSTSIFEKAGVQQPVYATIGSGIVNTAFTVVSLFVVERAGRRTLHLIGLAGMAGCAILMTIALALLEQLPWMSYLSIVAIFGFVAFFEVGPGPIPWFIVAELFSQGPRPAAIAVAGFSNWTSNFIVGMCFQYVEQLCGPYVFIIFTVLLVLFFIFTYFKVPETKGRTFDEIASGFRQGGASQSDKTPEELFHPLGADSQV
# test name: Indirect measurement of GLUT1 activity by quantification of intracellular ATP levels (glucose induced ATP increase)
# Assay type: cell-based
# Design: endogenous in cells; host or cells: DLD1 or CHO-K1
# study conditions: read-out: IC50 regarding glucose induced ATP increase (GLUT1 inhibition)
metric: pIC50
In plain terms, pIC50 is the concentration in mol/L turned into minus its base-10 logarithm.

compound: COc1cc(C(=O)Nc2c(C)nn(Cc3ccc(F)cc3)c2C)c2ccccc2n1
pIC50: 7.78
--
compound: Cc1cc(C(=O)Nc2c(C)nn(Cc3ccc(F)cc3)c2C)c2cc(Br)ccc2n1
pIC50: 7.50
--
compound: Cc1nn(CC2CNC(=O)O2)c(C)c1NC(=O)c1cc(C(N)=O)nc2ccccc12 (stereo not shown)
pIC50: 5.40
--
compound: Cc1nn(Cc2cc(C3CC3)on2)c(C)c1NC(=O)c1cc(C(N)=O)nc2cc(F)c(Cl)cc12
pIC50: 9.15
--
compound: Cc1c(NC(=O)c2cc(C(N)=O)nc3ccccc23)c(C(F)(F)F)nn1Cc1cc(F)ccc1C#N
pIC50: 6.95
--
compound: Cc1cccc2nc(C(N)=O)cc(C(=O)Nc3c(C(F)(F)F)nn(Cc4ccc(C#N)cc4)c3C)c12
pIC50: 7.75
--
compound: CNC(=O)c1ccc(Cn2nc(C(F)(F)F)c(NC(=O)c3cc(C(N)=O)nc4cc(F)ccc34)c2C)cc1
pIC50: 7.89
--
compound: Cc1nn(Cc2ccc(F)cc2)c(C)c1NC(=O)c1cc(O)nc2ccccc12
pIC50: 5.66
--
compound: Cc1ccc2nc(C)cc(C(=O)Nc3c(C)nn(Cc4ccc(Br)cc4)c3C)c2c1
pIC50: 7.23
--
compound: CC(=O)c1cccc(Cn2nc(C(F)(F)F)c(NC(=O)c3cc(C(N)=O)nc4cc(F)ccc34)c2C)c1
pIC50: 7.40

So, Cc1nn(Cc2ccc(F)c(F)c2)c(C)c1NC(=O)c1cc(C(F)(F)F)nc2c(Cl)cc(Cl)cc12 ? Its pIC50 was 7.59

Sure, the documented pIC50 for Cc1c(NC(=O)c2cc(C(N)=O)nc3cccc(F)c23)c(C(F)(F)F)nn1Cc1c(F)cc(C#N)cc1F is 8.12

Recorded pIC50 (compound Cc1cccc(Cn2nc(C)c(NC(=O)c3cc(C(N)=O)nc4cc(F)c(Cl)cc34)c2C)c1 [Example 1476] ): 8.54

Entry Cc1nn(Cc2cc(F)cc(F)c2)c(C)c1NC(=O)c1cc(C(F)(F)F)nc2ccc(Br)cc12 — recorded pIC50 = 5.69

Recorded pIC50 (compound Cc1ccc2c(C(=O)Nc3c(C)nn(Cc4ccc(F)cc4)c3C)cc(C)nc2c1 ): 5.41

# pIC50 (compound: Cc1nn(Cc2ccc(C(=O)NCC(C)(C)CO)cc2)c(C)c1NC(=O)c1cc(C(F)(F)F)nc2ccc(Br)cc12 ) is 7.01

Summary for this compound, Cc1nn(Cc2ccc(C(=O)N(C)C)cc2)c(C)c1NC(=O)c1cc(C(N)=O)nc2cc(F)ccc12 : pIC50 is 7.10

pIC50 in this record for Cc1nn(Cc2ccncc2C#N)c(C)c1NC(=O)c1cc(C(N)=O)nc2ccccc12 : 7.45

// sample Cc1nn(Cc2ccc(C(=O)NCCCN3CCOCC3)cc2)c(C)c1NC(=O)c1cc(C(F)(F)F)nc2ccc(Br)cc12 , its pIC50 was 7.05

Entry under test: CCc1nc(Cn2nc(C(F)(F)F)c(NC(=O)c3cc(C(N)=O)nc4ccccc34)c2C)no1 . Its pIC50 was 7.65

FYI, the data here is from patent US20170037028A1.
